Tested on: HDAC6 (Homo sapiens)
Construct: Full length human recombinant HDAC6 protein was expressed in baculoviral system
Procedure details: In vitro Histone Deacetylase Assay (enzymatic HDAC6 electrophoretic mobility shift assay)
Experimental conditions: full length human recombinant HDAC6, 1 nM enzyme, 2 μM peptide substrate RHKK(Ac)-NH2, 25° C.; read-out: HDAC6 activity range
pIC50: −log10 of the molar value.
Assay readout: pIC50

Field: example entries. Status: answers known.
# Compound, Tested on, Assay readout, Reported
rows = [
    ("CCCN1CC[C@]2(CCc3cc(C(=O)NO)ccc3C2)C1=O", "HDAC6 (Homo sapiens)", "pIC50", "≥ 7.00"),
    ("O=C(NO)c1ccc2c(c1)CCC1(CCN(C3CCCCC3)CC1)O2", "HDAC6 (Homo sapiens)", "pIC50", "< 6.30"),
    ("O=C(NO)c1ccc2c(c1)CC[C@]1(CCN(Cc3ccccc3Cl)C1=O)C2", "HDAC6 (Homo sapiens)", "pIC50", "≥ 7.00"),
    ("O=C(NO)c1ccc2c(c1)CC[C@]1(CCN(Cc3ccccc3OC(F)(F)F)C1=O)C2", "HDAC6 (Homo sapiens)", "pIC50", "≥ 7.00"),
    ("O=C(NO)c1ccc2c(c1)CC[C@@]1(CCN(Cc3ccc(OC(F)(F)F)cc3)C1=O)C2", "HDAC6 (Homo sapiens)", "pIC50", "6.30 to 7.00"),
]

query: Recorded pIC50 for `COCCn1c(N2CC[C@]3(CCc4cc(C(=O)NO)ccc4C3)C2=O)nc2ccccc21` with HDAC6 (Homo sapiens), please?
result: 6.30 to 7.00

query: Recorded pIC50 for O=C(NO)c1ccc2c(c1)CC[C@@]1(CCCN(C3CCC3)C1=O)C2 (single isomer, unassigned) with HDAC6 (Homo sapiens), please?
result: ≥ 7.00

query: Recorded pIC50 for `CC(C)c1ccc(N2CC[C@]3(CCc4cc(C(=O)NO)ccc4C3)C2=O)cn1` with HDAC6 (Homo sapiens), please?
result: ≥ 7.00

* * *

IC50 listing for selected compounds.
Tested on: HDAC6 (Homo sapiens, UniProt Q9UBN7)
Construct: Full length human recombinant HDAC6 protein was expressed in baculoviral system
Sequence (Q9UBN7 1-1215): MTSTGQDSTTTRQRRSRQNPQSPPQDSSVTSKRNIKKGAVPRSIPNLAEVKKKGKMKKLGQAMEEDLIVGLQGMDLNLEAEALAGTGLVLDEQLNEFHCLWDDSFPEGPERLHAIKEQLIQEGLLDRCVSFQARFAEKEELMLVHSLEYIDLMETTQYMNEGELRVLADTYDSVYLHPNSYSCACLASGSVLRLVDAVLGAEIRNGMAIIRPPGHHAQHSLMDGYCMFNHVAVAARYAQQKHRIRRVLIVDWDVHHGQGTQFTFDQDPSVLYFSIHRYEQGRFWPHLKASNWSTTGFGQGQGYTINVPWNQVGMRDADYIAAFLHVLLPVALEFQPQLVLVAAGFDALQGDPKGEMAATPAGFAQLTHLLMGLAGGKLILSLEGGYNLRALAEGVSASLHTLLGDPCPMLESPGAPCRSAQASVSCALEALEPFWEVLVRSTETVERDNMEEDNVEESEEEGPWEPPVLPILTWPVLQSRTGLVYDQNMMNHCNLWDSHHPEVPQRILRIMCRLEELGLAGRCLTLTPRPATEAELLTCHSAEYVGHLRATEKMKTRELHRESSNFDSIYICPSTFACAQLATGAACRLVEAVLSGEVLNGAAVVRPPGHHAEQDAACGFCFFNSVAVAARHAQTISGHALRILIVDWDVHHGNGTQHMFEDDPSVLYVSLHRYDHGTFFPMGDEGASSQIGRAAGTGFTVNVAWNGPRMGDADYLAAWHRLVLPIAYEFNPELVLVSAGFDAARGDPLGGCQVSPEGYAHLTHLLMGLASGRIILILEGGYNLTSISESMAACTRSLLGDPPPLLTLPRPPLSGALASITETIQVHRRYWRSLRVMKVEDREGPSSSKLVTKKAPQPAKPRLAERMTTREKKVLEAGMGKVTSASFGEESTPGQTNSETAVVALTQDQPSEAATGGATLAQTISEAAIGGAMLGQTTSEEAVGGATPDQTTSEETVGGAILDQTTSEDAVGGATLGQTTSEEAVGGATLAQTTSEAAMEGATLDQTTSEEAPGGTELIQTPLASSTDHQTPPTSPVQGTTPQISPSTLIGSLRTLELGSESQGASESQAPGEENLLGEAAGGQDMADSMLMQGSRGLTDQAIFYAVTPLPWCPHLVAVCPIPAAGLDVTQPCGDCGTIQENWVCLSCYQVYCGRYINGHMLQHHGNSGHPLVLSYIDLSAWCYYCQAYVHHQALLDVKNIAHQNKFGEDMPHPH
Procedure details: In vitro Histone Deacetylase Assay (enzymatic HDAC6 electrophoretic mobility shift assay)
Experimental conditions: full length human recombinant HDAC6, 1 nM enzyme, 2 μM peptide substrate RHKK(Ac)-NH2, 25° C.; read-out: HDAC6 activity range

Field: example entries. Status: answers known.
# Compound, Tested on, IC50
measured = [
    ("O=C(NO)c1ccc2c(c1)CC[C@]1(CCN(Cc3ccc4ccccc4c3)C1=O)C2", "HDAC6 (Homo sapiens, UniProt Q9UBN7)", "≤ 100 nM"),
    ("CC(C)(C)c1ccc(CN2CC[C@@]3(CCc4cc(C(=O)NO)ccc4C3)C2=O)cc1", "HDAC6 (Homo sapiens, UniProt Q9UBN7)", "100 to 500 nM"),
    ("O=C(NO)c1ccc2c(c1)CCC1(CCN(Cc3ccc(Cl)c(Cl)c3)C1=O)C2 (centres unmarked)", "HDAC6 (Homo sapiens, UniProt Q9UBN7)", "≤ 100 nM"),
    ("Cc1ncccc1N1CC[C@@]2(CCc3cc(C(=O)NO)ccc3C2)C1=O", "HDAC6 (Homo sapiens, UniProt Q9UBN7)", "≤ 100 nM"),
    ("O=C(NO)c1ccc2c(c1)CC[C@]1(CC(=O)N(CC3CCC3)C1)C2 (single isomer, unassigned)", "HDAC6 (Homo sapiens, UniProt Q9UBN7)", "≤ 100 nM"),
    ("N#Cc1ccccc1N1CC[C@]2(CCc3cc(C(=O)NO)ccc3C2)C1=O", "HDAC6 (Homo sapiens, UniProt Q9UBN7)", "≤ 100 nM"),
]

query: Which measured IC50 value corresponds to `O=C(NO)c1ccc2c(c1)CCC1(CCN(S(=O)(=O)C3CCCCC3)CC1)O2` ?
result: 100 to 500 nM

query: Which measured IC50 value corresponds to O=C(NO)c1ccc2c(c1)CCC1(CCCN(CC3CCC3)C1=O)C2 (single isomer, unassigned) ?
result: ≤ 100 nM

* * *

Tested on: HDAC6 (Homo sapiens, UniProt Q9UBN7)
Construct: Full length human recombinant HDAC6 protein was expressed in baculoviral system
Procedure details: In vitro Histone Deacetylase Assay (enzymatic HDAC6 electrophoretic mobility shift assay)
Experimental conditions: full length human recombinant HDAC6, 1 nM enzyme, 2 μM peptide substrate RHKK(Ac)-NH2, 25° C.; read-out: HDAC6 activity range
IC50 listing for selected compounds.

Field: example entries. Status: answers known.
# Compound, IC50
rows = [
    ("Cc1ccc(CN2CCC3(CCc4cc(C(=O)NO)ccc4C3)C2=O)cc1 (stereo not shown)", "100 to 500 nM"),
    ("COCCn1c(CN2CC[C@]3(CCc4cc(C(=O)NO)ccc4C3)C2=O)nc2ccccc21", "≤ 100 nM"),
    ("CC(C)n1c(CN2CC[C@]3(CCc4cc(C(=O)NO)ccc4C3)C2=O)nc2ccccc21", "≤ 100 nM"),
]

# ---- query compound ----
query: Which measured IC50 value corresponds to `COc1cc(N2CC[C@@]3(CCc4cc(C(=O)NO)ccc4C3)C2=O)ccn1` ?
result: ≤ 100 nM

* * *

Tested on: HDAC6 (Homo sapiens, UniProt Q9UBN7)
Construct: Full length human recombinant HDAC6 protein was expressed in baculoviral system
Procedure details: In vitro Histone Deacetylase Assay (enzymatic HDAC6 electrophoretic mobility shift assay)
Experimental conditions: full length human recombinant HDAC6, 1 nM enzyme, 2 μM peptide substrate RHKK(Ac)-NH2, 25° C.; read-out: HDAC6 activity range
pIC50: −log10 of the molar value.
pIC50 listing for selected compounds.

Field: example entries. Status: answers known.
# Compound, Assay readout, Reported
rows = [
    ("CN1C[C@@]2(CCc3cc(C(=O)NO)ccc3C2)CC1=O (single isomer, unassigned) [Compound I-201]", "pIC50", "≥ 7.00"),
    ("COc1cc(N2CC[C@]3(CCc4cc(C(=O)NO)ccc4C3)C2=O)ccn1 [Compound I-149]", "pIC50", "≥ 7.00"),
    ("O=C(NO)c1ccc2c(c1)CCC1(CCN(CC3CCOCC3)C1=O)O2 (centres unmarked) [Compound I-234]", "pIC50", "< 6.30"),
    ("O=C(NO)c1ccc2c(c1)CC[C@]1(CC(=O)N(Cc3cccnc3)C1)C2 (single isomer, unassigned) [Compound I-226]", "pIC50", "≥ 7.00"),
]

query: Which measured pIC50 value corresponds to CCN1CCCC2(CCc3cc(C(=O)NO)ccc3C2)C1=O (single isomer, unassigned) [Compound I-194] ?
result: ≥ 7.00

query: Which measured pIC50 value corresponds to CC(C)CN1CC[C@]2(CCc3cc(C(=O)NO)ccc3C2)C1=O [Compound I-159] ?
result: ≥ 7.00

query: Which measured pIC50 value corresponds to O=C(NO)c1ccc2c(c1)CCC1(CCN(Cc3nc4ccccc4[nH]3)CC1)O2 [II-2] ?
result: < 6.30

query: Which measured pIC50 value corresponds to O=C(NO)c1ccc2c(c1)CCC1(CCCN(Cc3ccccc3)C1=O)C2 (centres unmarked) [Compound I-176] ?
result: ≥ 7.00
